Each recorded value in this set is attributed to ChEMBL document CHEMBL4689842.

tested on: Fibroblast; experiment: Multiplex assay against human fibroblast; format: toxicity, cell-based; conditions: 48 h, 10 µM, compound concentration 10 uM, replicate 2
Catalogue of Population Mitotic Cells (%) readings, one per entry.
test-readout: Population Mitotic Cells (%)

>>> result_value("Cc1[nH]c(/C=C2\\C(=O)Nc3ccc(S(=O)(=O)N(C)c4cccc(Cl)c4)cc32)c(C)c1C(=O)N1CCN(C)CC1")
50
>>> result_value("C=CC(=O)Nc1ccc2ncnc(Nc3ccc(OCc4cccc(F)c4)c(Cl)c3)c2c1.Cc1ccc(S(=O)(=O)O)cc1")
0
>>> result_value("COc1cc(-n2cnc3cc(-c4ccc(Cl)cc4)sc3c2=O)ccc1OCCN1CCCC1")
36
>>> result_value("C[C@@H](NCCCc1cccc(C(F)(F)F)c1)c1cccc2ccccc12.Cl [CINACALCET HYDROCHLORIDE]")
7
>>> result_value("Cc1csc2c(N[C@@H](C)CN3CCN(S(=O)(=O)c4ccc(Cl)c(Cl)c4)CC3)ncnc12")
42
